PROTOCOL NOTES: activity coefficient (dimensionless); of the first substance listed, at infinite dilution; xn = mol fraction of the nth substance listed
DETAILS: 293.15 K; 101 kPa; Liquid; Inert gas stripping; x1 = 0
EXPERIMENTAL READOUT: activity coefficient

// below: answered molecules
[[record]]
molecule = "CCOC(=O)OCC [diethyl carbonate] + O"
assay_value = 353

[[record]]
molecule = "C=COC(C)=O [vinyl acetate] + O"
assay_value = 177


a = COC(=O)OC [dimethyl carbonate] + O
b = C=C(C)C(=O)OC [methyl methacrylate] + O
For the two items a and b , which reports the higher activity coefficient value? Write down the label of the entry you select.
b
(b: 366, a: 46.3)

====

PROTOCOL NOTES: activity coefficient (dimensionless); of the first substance listed, at infinite dilution; xn = mol fraction of the nth substance listed
DETAILS: 273.35 K; 101 kPa; Liquid; Inert gas stripping; x1 = 0
EXPERIMENTAL READOUT: activity coefficient

// below: answered compounds
[[record]]
compound = "C=C(C)C(=O)OC [methyl methacrylate] + O"
experimental_readout = "activity coefficient"
assay_value = 283

[[record]]
compound = "C=COC(C)=O [vinyl acetate] + O"
experimental_readout = "activity coefficient"
assay_value = 150


a = CCOC(=O)OCC [diethyl carbonate] + O
b = COC(=O)OC [dimethyl carbonate] + O
For the two items a and b , which reports the higher activity coefficient value? Write down the label of the entry you select.
a

====

PROTOCOL NOTES: activity coefficient (dimensionless); of the first substance listed, at infinite dilution; xn = mol fraction of the nth substance listed
DETAILS: 313.15 K; 101 kPa; Liquid; Inert gas stripping; x1 = 0
EXPERIMENTAL READOUT: activity coefficient

[[record]]
compound = "C=C(C)C(=O)OC [methyl methacrylate] + O"
experimental_readout = "activity coefficient"
assay_value = 403

[[record]]
compound = "C=COC(C)=O [vinyl acetate] + O"
experimental_readout = "activity coefficient"
assay_value = 190


P = COC(=O)OC [dimethyl carbonate] + O
Q = CCOC(=O)OCC [diethyl carbonate] + O
For the two items P and Q , which reports the higher activity coefficient value? Write down the label of the entry you select.
Q

====

PROTOCOL NOTES: activity coefficient (dimensionless); of the first substance listed, at infinite dilution; xn = mol fraction of the nth substance listed
DETAILS: 303.15 K; 101 kPa; Liquid; Inert gas stripping; x1 = 0
EXPERIMENTAL READOUT: activity coefficient

// below: answered compounds
[[record]]
compound = "C=C(C)C(=O)OC [methyl methacrylate] + O"
assay_value = 390

[[record]]
compound = "C=COC(C)=O [vinyl acetate] + O"
assay_value = 187


1 = COC(=O)OC [dimethyl carbonate] + O
2 = CCOC(=O)OCC [diethyl carbonate] + O
For the two items 1 and 2 , which reports the higher activity coefficient value? Write down the label of the entry you select.
2
(2: 394, 1: 49.3)

====

PROTOCOL NOTES: activity coefficient (dimensionless); of the first substance listed, at infinite dilution; xn = mol fraction of the nth substance listed
DETAILS: 333.15 K; 101 kPa; Liquid; Inert gas stripping; x1 = 0
EXPERIMENTAL READOUT: activity coefficient

// below: answered compounds
[[record]]
compound = "C=C(C)C(=O)OC [methyl methacrylate] + O"
assay_value = 394

[[record]]
compound = "C=COC(C)=O [vinyl acetate] + O"
assay_value = 187


a = COC(=O)OC [dimethyl carbonate] + O
b = CCOC(=O)OCC [diethyl carbonate] + O
// returns a or b , whichever has the lower activity coefficient Write down the label of the entry you select.
a
(a: 50.3, b: 388)

====

PROTOCOL NOTES: activity coefficient (dimensionless); of the first substance listed, at infinite dilution; xn = mol fraction of the nth substance listed
DETAILS: 283.15 K; 101 kPa; Liquid; Inert gas stripping; x1 = 0
EXPERIMENTAL READOUT: activity coefficient

[[record]]
compound = "C=COC(C)=O [vinyl acetate] + O"
experimental_readout = "activity coefficient"
assay_value = 161


I = COC(=O)OC [dimethyl carbonate] + O
II = C=C(C)C(=O)OC [methyl methacrylate] + O
For the two items I and II , which reports the higher activity coefficient value? Write down the label of the entry you select.
II
(II: 321, I: 43.8)
